Hello, the source for this data is patent US20230052369A1, in case you need it.

molecular target: T1, recombinant His-tagged human FRα (human, UniProt P15328 25-234); experiment: BLI, purified, average n=2
T1 construct: Bought protein; also called hFRα; FRα-HIS
T1 sequence (P15328 25-234 limits assumed): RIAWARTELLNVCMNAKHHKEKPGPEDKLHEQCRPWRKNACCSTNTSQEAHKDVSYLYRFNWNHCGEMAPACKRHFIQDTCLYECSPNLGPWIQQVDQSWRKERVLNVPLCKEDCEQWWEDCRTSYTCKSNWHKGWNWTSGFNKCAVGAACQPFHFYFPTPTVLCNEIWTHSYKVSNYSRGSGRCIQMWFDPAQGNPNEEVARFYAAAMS
Quantity measured: Kd

| Binder | Kd |
| --- | --- |
| v23818 (antibody, human IgG1, kappa, V domains shown, also called humanized 8K22 H5L5) VH: EVQLVESGGGLVQPGGSLRLSCAASGFTISNNYYMCWVRQAPGKGLEWIACIYGGISGRTYYADWAKGRFTISKDSSKNTVYLQMNSLRAEDTAVYYCVRGYVGTSNLWGQGTLVTVSS VL: DIQMTQSPSSLSASVGDRVTITCQASQSIYSSLAWYQQKPGKAPKLLIYDASHLASGVPSRFSGSRYGTDFTLTISSVQPEDAATYYCQGGWYSSAATYVPNTFGGGTKVEVKR | 6.13 nM |

Note to self: Kd recorded for v23820 (antibody, human IgG1, kappa, V domains shown, FSA format; rabbit variable domains, human IgG1/kappa constant domains; also called 8K22 rabbit-human parental chimera) VH: QEQLVESGGGLVQPEGSLTLTCKASGFTISNNYYMCWVRQAPGKGLEWIACIYGGISGRTYYASWAKGRFTISKTSSTTVTLQMTSLTAADTATYFCVRGYVGTSNLWGPGTLVTVSS VL: DIVMTQTPASVEAAVGGTVTIKCQASQSIYSSLAWYQQKPGQSPKLLIYDASHLASGVPSRFSGSRYGTEFTLTISGVQCDDAATYYCQGGWYSSAATYVPNTFGGGTEVVVKR was 4.11 nM

Note to self: Kd recorded for v23809 (antibody, human IgG1, kappa, V domains shown, also called humanized 8K22 H1L4) VH: EVQLVESGGGLVQPGGSLRLSCAASGFTISNNYYMCWVRQAPGKGLEWVSCIYGGISGRTYYADSVKGRFTISKDNSKNTLYLQMNSLRAEDTAVYYCVRGYVGTSNLWGQGTLVTVSS VL: DIQMTQSPSSLSASVGDRVTITCQASQSIYSSLAWYQQKPGKAPKLLIYDASHLASGVPSRFSGSGSGTDFTLTISSVQPEDAATYYCQGGWYSSAATYVPNTFGGGTKVEVKR was 9.03 nM
